This collection of values is drawn from paper PMC2946844.

# target: T1, 1xMBD-GFP (UniProt Q9Z2E2 1-75)
# T1 sequence: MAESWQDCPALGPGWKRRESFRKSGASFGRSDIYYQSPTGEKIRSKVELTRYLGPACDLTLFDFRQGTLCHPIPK
# run.description: SPR
pKd: −log10 of the molar value.
Decision: pKd compared against 6; not below it gives met, below it gives not met.

Answer whether pKd of o_m_m/m_m_m (dsDNA, strand 1 5mC10,5mC17; strand 2 5mC5,5mC12,5mC17) DNA 1: TTTGCGGTCCGCTGCCCGACCC DNA 2: GGGTCGGGCAGCGGACCGCAAA is greater than or equal to 6.
met

Follow-up item: o_o_m_o/m_m_o_o (dsDNA, strand 1 5mC21; strand 2 5mC17,5mC21) DNA 1: GAAGTCAACAGGACGGACGCCGCGCAA DNA 2: CTCTTTCTTTGCGCGGCGTCCGTCCTGTTGACTTCCTCT
not met
